Biological target: T1, Bcat-Halo (beta-catenin HaloTag fusion expressed in HEK293 cells) (UniProt P35222 1-781)
T1 sequence (looked up): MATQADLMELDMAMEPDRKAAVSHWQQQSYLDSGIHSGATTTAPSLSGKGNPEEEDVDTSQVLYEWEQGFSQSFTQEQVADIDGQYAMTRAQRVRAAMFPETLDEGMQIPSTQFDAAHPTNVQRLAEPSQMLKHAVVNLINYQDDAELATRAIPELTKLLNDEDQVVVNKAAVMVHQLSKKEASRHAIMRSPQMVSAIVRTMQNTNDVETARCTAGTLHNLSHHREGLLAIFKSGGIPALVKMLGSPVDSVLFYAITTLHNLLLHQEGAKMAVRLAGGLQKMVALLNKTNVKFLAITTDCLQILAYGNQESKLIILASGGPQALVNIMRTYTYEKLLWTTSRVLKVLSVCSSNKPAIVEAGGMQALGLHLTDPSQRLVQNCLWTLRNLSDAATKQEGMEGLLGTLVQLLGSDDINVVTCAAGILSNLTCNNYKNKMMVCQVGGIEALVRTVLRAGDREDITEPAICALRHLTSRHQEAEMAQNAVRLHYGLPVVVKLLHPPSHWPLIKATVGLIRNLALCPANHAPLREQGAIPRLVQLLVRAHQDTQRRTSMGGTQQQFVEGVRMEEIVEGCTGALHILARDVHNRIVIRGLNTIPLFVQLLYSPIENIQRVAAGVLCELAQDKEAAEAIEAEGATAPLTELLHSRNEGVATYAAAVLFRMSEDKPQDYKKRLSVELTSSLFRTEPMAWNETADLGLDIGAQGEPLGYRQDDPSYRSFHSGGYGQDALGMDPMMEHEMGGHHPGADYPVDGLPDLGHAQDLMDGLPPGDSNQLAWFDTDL
Test: cell-based or functional assay
Starred links: 1 amine or outer side, 2 acyl side, 3 side chain; linkers in the order of their positions; H or OH if unused. Positions of bridges follow the written chain, without caps; N, C: chain ends. Non-standard residues stand in square brackets, D forms with d. Primed or numbered codes have the meaning given here. No end group written: not given here. PyrS2″ = (S)-3-amino-1-((pent-4-en-1-yloxy)carbonyl)pyrrolidine-3-carboxylic acid (stapling residue), C=CCCCOC(=O)N1CC[C@@](N[*:1])(C(=O)[*:2])C1; B5(4) = 2,2-bis(4-pentenyl)glycine = 2-amino-2-(pent-4-en-1-yl)hept-6-enoic acid (stitching residue), C=CCCCC(CCCC=C)(N[*:1])C(=O)[*:2]; PyrS2 = (S)-3-amino-1-((pent-4-en-1-yloxy)carbonyl)pyrrolidine-3-carboxylic acid, C=CCCCOC(=O)N1CC[C@@](N[*:1])(C(=O)[*:2])C1; Phe(4-CF3) = N[C@@H](Cc1ccc(C(F)(F)F)cc1)C(=O)O; Phe(2-CF3) = N[C@@H](Cc1ccccc1C(F)(F)F)C(=O)O; Phe(2-Cl) = N[C@@H](Cc1ccccc1Cl)C(=O)O; Bta = N[C@@H](Cc1csc2ccccc12)C(=O)O; αAllylPro = C=CC[C@@]1(C(=O)O)CCCN1; tBuAla = CC(C)(C)C[C@H](N)C(=O)O; 3Thi = N[C@@H](Cc1ccsc1)C(=O)O
Property: NanoBRET Abs IC50

// NanoBRET Abs IC50 lookup, key: [αAllylPro]D[tBuAla][B5(4)]DDAAFS[PyrS2″]F[Bta]S-NH2 (staple 1-4, 4-11; not fully specified; printed as PL3-Asp-Npg-B5-Asp-Asp-Ala-Ala-Phe-Ser-PyrS2-Phe-BztA-Ser-NH2) [I-1356]
> 20 µM

// NanoBRET Abs IC50 lookup, key: Ac-[αAllylPro]D[tBuAla][B5(4)]DDAAFF[PyrS2][Phe(2-Cl)][Bta]Q-NH2 (staple 1-4, 4-11) [I-1366]
7.5 µM

// NanoBRET Abs IC50 lookup, key: [αAllylPro]D[tBuAla][B5(4)]DDAAFL[PyrS2]F[Bta]Q-NH2 (staple 1-4, 4-11) [I-1361]
> 20 µM

// NanoBRET Abs IC50 lookup, key: Ac-[αAllylPro]D[tBuAla][B5(4)]DDAAF[Phe(4-CF3)][PyrS2][Phe(2-Cl)][Bta]Q-NH2 (staple 1-4, 4-11) [I-1369]
9.9 µM

// NanoBRET Abs IC50 lookup, key: Ac-[αAllylPro]D[tBuAla][B5(4)]DDAAF[Phe(2-CF3)][PyrS2][3Thi][Bta]Q-NH2 (staple 1-4, 4-11) [I-1363]
5.5 µM
